- Assay System: hQC (Homo sapiens, UniProt Q16769)
- Sequence (Q16769 29-361): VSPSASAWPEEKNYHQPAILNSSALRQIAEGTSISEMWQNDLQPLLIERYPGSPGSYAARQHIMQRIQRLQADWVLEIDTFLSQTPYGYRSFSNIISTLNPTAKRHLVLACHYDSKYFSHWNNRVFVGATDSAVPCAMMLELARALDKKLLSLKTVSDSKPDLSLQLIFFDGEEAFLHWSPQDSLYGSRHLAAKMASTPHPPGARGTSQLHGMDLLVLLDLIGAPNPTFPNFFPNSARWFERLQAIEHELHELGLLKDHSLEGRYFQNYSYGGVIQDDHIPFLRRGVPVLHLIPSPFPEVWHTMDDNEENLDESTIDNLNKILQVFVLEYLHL
- Assay Method Text: Fluorometric (fluorescent) assay of hQC inhibition, IC50
- Assay type: biochemical
- Test Parameters: hQC inhibition; read-out: IC50
- Description: All compounds were immediately tested regarding their activity as hQC inhibitors. The purity of the compounds was determined by HPLC-MS. The IC50 value against hQC was measured using the fluorescent assay. All measurements were performed with a BioAssay Reader HTS-7000Plus for microplates (Perkin Elmer) at 30° C. QC activity was evaluated fluorometrically using H-Gln-βNA. […] QC activity was determined from a standard curve of β-naphthylamine under assay conditions. […]
Some compounds, each annotated with its measured IC50.
Reply numerically in µM, unit not repeated.

Guide cases for IC50, answers given:
Compound	Scale Unit	IC50
C1=CCC(C(Nc2ccc3[nH]cnc3c2)c2nnnn2CCc2cccs2)CC1 (stereo not shown)	µM	8.5
CCOC(=O)C1CCCCC1n1nnnc1C(Nc1ccc2[nH]cnc2c1)c1ccc(OC)c(F)c1 (stereo not shown)	µM	8.5
CC(C)(C)OC(=O)Cn1nnnc1C(Nc1ccc2[nH]cnc2c1)c1ccc(-c2ccccn2)cc1 (stereo not shown)	µM	2.2

Now consider the entry below.
Exam item: Could you tell me which IC50 is on file for CC(Cc1ccc2c(c1)OCO2)C(Nc1ccc2[nH]cnc2c1)c1nnnn1C1CCCCC1 (stereo not shown) ?
Marked response: 7.6
